// values below are reported protein stability index
experiment: protein stability index of a GFP-peptide fusion (yeast GPS) (PSI 1-4); higher = more stable; sorted into four equal gates, so the index is relative within each strain; details: ubr1∆
readout-label: protein stability index

>>> measured_result("ESVLPAARYDYAVAEQC [QCR2]")
1.98
>>> measured_result("KEPRLVIVTDPRLDAQA [RPS0B]")
2.61
>>> measured_result("RGVDAGKGNTFEKVGSH [RPN14]")
3.33
>>> measured_result("VQNLRSWETKLKQNILE [CSN9]")
1.82
>>> measured_result("GSMFSGDNTSDVDMEDR [RRI1]")
2.85
>>> measured_result("YRVTLESILQMNQGEGE [RPC34]")
2.97
>>> measured_result("SASHILIPASDLSWSKQ [PRP8]")
1.95
>>> measured_result("WSEISNELPDIEALYDD [RPN2]")
3.12
>>> measured_result("ALDFRNVSIVANYIKER [SMC4]")
1.82
>>> measured_result("IAGVITRSKRLSQVYPT [CSN12]")
3.01
>>> measured_result("QFISSRQFEVKQLQLAM [POP1]")
1.74
>>> measured_result("IQRETLLPTNNGQPLNQ [GRR1]")
2.65

###

test: protein stability index of a GFP-peptide fusion (yeast GPS) (PSI 1-4); higher = more stable; sorted into four equal gates, so the index is relative within each strain; settings: san1∆
Recorded protein stability index determines the label; the label ranges are lower bin = under 2, middle bin = from 2 up to 3, upper bin = 3 and over

>>> class_name("SQFLKRVHANLQCISQI [SNF11]")
"lower bin"
>>> class_name("TYSFIDNDRFNVVGKLI [YML103C/NUP188]")
"middle bin"
>>> class_name("HNAGPVAGAGAASGAAA [RPP1B]")
"middle bin"
>>> class_name("RDMTYSAPIYVDIEYTR [RET1]")
"lower bin"
>>> class_name("LVDENTDYLYRRLHDEN [YCS4]")
"middle bin"
>>> class_name("AQKYASIVGVDLSSAAS [FAS2]")
"lower bin"
>>> class_name("KHVGFELLSMGNAKESK [SRP72]")
"middle bin"
>>> class_name("PVNSADGKEDVEKGTPL [SME1]")
"upper bin"
>>> class_name("SAVIIDEFKDITKEVTQ [YIL149C/MLP2]")
"middle bin"
>>> class_name("REQHIDTICQSIQEQIQ [SNF5]")
"upper bin"
>>> class_name("QRYVKSVKSVKFPTRKI [RPC34]")
"upper bin"
>>> class_name("NFYLKRFISDLLWLVLI [SWI1]")
"lower bin"
>>> class_name("VIDLEKIKFDESSKLMT [BRR2]")
"lower bin"
>>> class_name("NKGELETQPGCNEEQTL [RPO31]")
"upper bin"
>>> class_name("VREFLEKNYDRKEPPAT [PRE6]")
"upper bin"
>>> class_name("YQKEYETAERNIIQAKR [RPL7A]")
"lower bin"
>>> class_name("PDMYERKVENIRTILVN [MED7]")
"lower bin"
>>> class_name("YINDVHLLYPPHIIAVA [SSN8]")
"middle bin"
>>> class_name("IAGHDEFNGFSLYQVDP [PRE8]")
"upper bin"
>>> class_name("GKMNNEVSTSTSMTGDA [SWI3]")
"upper bin"
>>> class_name("FDIYNRDRKLITDKGTV [YJL039C/NUP192]")
"middle bin"
>>> class_name("VFKLSTNLISKISLLRP [SWP82]")
"middle bin"
>>> class_name("IWLLSYIQYLGHLPEVS [ECM29]")
"middle bin"
>>> class_name("SPLNTTTKILGDKILGN [YML103C/NUP188]")
"middle bin"
>>> class_name("SRCHLVTKDTKKYSSKN [SRP68]")
"middle bin"
>>> class_name("NKLTGKQIVFEIPSQTN [RPS7B]")
"middle bin"
>>> class_name("RTPVPSTLMPGGVDVGP [SNF5]")
"middle bin"
>>> class_name("KWQTLIEANVTVKTSDD [RPS1A]")
"lower bin"
>>> class_name("DDRVDKKFVSQIQKNVD [POP3]")
"upper bin"
>>> class_name("DSIPYPQIVKLFDISRE [ECM29]")
"lower bin"
>>> class_name("SWYLNTFDGIRMSSEEV [GRR1]")
"middle bin"
>>> class_name("EYMKRHPTTIESLREIP [SEC65]")
"upper bin"
>>> class_name("QKSFEQLNSRAVAVVVD [RPN11]")
"lower bin"
>>> class_name("AINLMGVKNNLLTPKSG [RPO31]")
"middle bin"
>>> class_name("LQYANNAVISHANAAAV [SIN4]")
"lower bin"
>>> class_name("IDSFFLYVLPSFNIPRL [YMR129W/POM152]")
"lower bin"
>>> class_name("DINVESLTQSVCDLALR [PUP2]")
"lower bin"
>>> class_name("VKRYRLAPTQLSAEYLV [SIN4]")
"middle bin"
>>> class_name("RGKKGLKKKVVDPFTRK [RPS1B]")
"upper bin"
>>> class_name("TTDNNNSGNSNSNSNQQ [RPT1]")
"middle bin"
>>> class_name("ESKLRDDLERLKKIRAH [RPS18A]")
"lower bin"

###

experiment: protein stability index of a GFP-peptide fusion (yeast GPS) (PSI 1-4); higher = more stable; sorted into four equal gates, so the index is relative within each strain; conditions: san1∆
Reported protein stability index values follow for various sequences
readout-label: protein stability index

>>> measured_result("TQEIRPVNTGVLHVSAK [RRP40]")
2.74
>>> measured_result("KQDCVDWFTYSYFYRRI [BRR2]")
1.51
>>> measured_result("PLQVARCTKIIKGNGES [RPT1]")
2.72
>>> measured_result("FSHPAHQQRMSRTAADI [YCG1]")
2.4
>>> measured_result("FGRTLASVTKEILGTAQ [RPL12A]")
1.38
>>> measured_result("AFLSFLAYRNYWTQYLG [YJL039C/NUP192]")
1.26
>>> measured_result("SDSLGPDTSNEICDLAY [SRB2]")
3.29
>>> measured_result("QINPTRETNDDIWRVAG [SNF2]")
2.25
>>> measured_result("LPVKHPELFESLGIAQP [RPT6]")
2.55
>>> measured_result("NANQQFLPFNNSASNNG [SWI1]")
2.96
>>> measured_result("RNLNNLKQENAYLLIRR [RPB8]")
3.15
>>> measured_result("TRKAVRPQKLRASLVPG [RPL6B]")
2.9
>>> measured_result("VIMALMLMSKIGDVDGL [POP5]")
1.84
>>> measured_result("LLDVVKGTEASNDIIDK [YDL116W/NUP84]")
1.92
>>> measured_result("EDRNESVNIAFAISMGY [ECM29]")
2.88
>>> measured_result("TVINEQQREAVRQLYKG [RPL35A]")
3.13
>>> measured_result("VREYEQPDANKKKRSRT [ISW2]")
3.25
>>> measured_result("ISSLMFDEEFDPFKTSS [IRR1]")
2.7
>>> measured_result("SGRCDGYILEGEELAFY [RPS8A]")
3.29
>>> measured_result("LVTQHKAKYNTPKYRLV [RPL5]")
1.76
>>> measured_result("LSRLSTASKIIVIDVDY [MED1]")
2.2

###

assay: protein stability index of a GFP-peptide fusion (yeast GPS) (PSI 1-4); higher = more stable; sorted into four equal gates, so the index is relative within each strain; conditions: san1∆
readout-label: protein stability index

>>> measured_result("FRCKETHSYNFMRQNLE [RPC82]")
1.96
>>> measured_result("SDGQSRVKDIHLRKLLD [RET1]")
3.11
>>> measured_result("ERLMSRPFGVALLIAGH [PUP2]")
2.74
>>> measured_result("GMIYNKLFVSKEHAPYT [FAS2]")
2.24
>>> measured_result("SMLFKTSQKMTSTVNRL [MCD1]")
2.33
>>> measured_result("YLREDQMIDTSILPTRD [NUT1]")
2.94
>>> measured_result("NVLFLRLFNNVKIHSQE [SRP72]")
1.66
>>> measured_result("NAANVPVENIWADIFAK [RPP1A]")
2.48
>>> measured_result("TMTISHLLLGFQVSNVI [YJL039C/NUP192]")
1.75
>>> measured_result("IGEGAKLVRDAFALAKE [RPT5]")
3.3
>>> measured_result("FVIGEQGKPYISLPKGK [RPS4A]")
3.25
>>> measured_result("GHEELKRRIEEEQEKIN [ISW2]")
3.13
>>> measured_result("KNLQRESCEDILDLKEF [RTT102]")
3.17
>>> measured_result("RSGSNAAASLPSKKLKT [RPC82]")
2.71
>>> measured_result("ELLNADHQHILRKLKKM [RPC53]")
1.11
>>> measured_result("LTEAVEDGPRPFKVFLD [RPL5]")
3.02
>>> measured_result("FISSGTSLLDSLISVLE [YJL039C/NUP192]")
2.17
>>> measured_result("GDANNRWDKEEYQSLMS [SMC1]")
3.05
>>> measured_result("IVALTNAKDKERLQLLE [SMC3]")
3.01
>>> measured_result("EEEDSILSLEQSSRVVS [YCS4]")
3.19
>>> measured_result("STIEKDMKEYDSDKGSK [SMC2]")
3.37
>>> measured_result("VEIAYHKCDELITLFNK [RPO31]")
2.99
>>> measured_result("KHWTEKSLHEMNERDWR [PRP28]")
2.97
>>> measured_result("QKVLNAHRQRAMEARSS [SMC4]")
1.98
>>> measured_result("KIPLFTFAKSKNYSRPS [SIR4]")
1.74
>>> measured_result("LLNKNTGNNLYDRNSNN [SWI1]")
2.7

This collection of values is drawn from the supplement of paper PMC9732359.
